- SYSTEM_NAME: T1, M10
- T1 construct: also called PD1 mutant M10
- MEASUREMENT_PROTOCOL: scFv-phage ELISA
READOUT_LABEL: OD490

BINDER: PD1-45F1 (antibody, V domains shown, scFv-phage in the screening ELISA; later whole IgG) VH: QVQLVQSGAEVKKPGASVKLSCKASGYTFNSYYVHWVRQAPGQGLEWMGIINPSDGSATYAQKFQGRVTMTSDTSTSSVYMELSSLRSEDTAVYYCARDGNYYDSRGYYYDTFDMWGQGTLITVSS VL: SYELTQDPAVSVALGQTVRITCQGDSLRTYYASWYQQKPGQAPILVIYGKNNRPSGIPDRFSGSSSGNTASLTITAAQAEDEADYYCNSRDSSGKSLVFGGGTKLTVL
READOUT_LABEL: OD490
MEASUREMENT: 3.9
//
BINDER: PD1-32A6 (antibody, V domains shown, scFv-phage in the screening ELISA; later whole IgG) VH: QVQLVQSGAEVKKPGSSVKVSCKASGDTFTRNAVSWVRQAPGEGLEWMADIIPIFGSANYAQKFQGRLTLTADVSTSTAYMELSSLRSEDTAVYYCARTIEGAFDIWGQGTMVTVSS VL: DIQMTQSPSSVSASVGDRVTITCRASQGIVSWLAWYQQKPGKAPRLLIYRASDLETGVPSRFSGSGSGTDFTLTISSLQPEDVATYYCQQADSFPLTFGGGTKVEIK
READOUT_LABEL: OD490
MEASUREMENT: 2.5
//
BINDER: PD1-29H3 (antibody, V domains shown, scFv-phage in the screening ELISA; later whole IgG) VH: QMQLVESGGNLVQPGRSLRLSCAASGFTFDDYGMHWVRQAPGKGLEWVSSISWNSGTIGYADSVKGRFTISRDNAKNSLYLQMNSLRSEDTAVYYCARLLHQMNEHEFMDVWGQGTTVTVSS VL: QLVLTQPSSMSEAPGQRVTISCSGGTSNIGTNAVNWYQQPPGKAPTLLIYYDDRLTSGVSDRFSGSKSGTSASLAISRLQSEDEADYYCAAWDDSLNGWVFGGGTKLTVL
READOUT_LABEL: OD490
MEASUREMENT: 3
